Where a name gives a salt, the structure may show the parent alone.
Each entry below carries its reported melting point.
MEASURED QUANTITY: melting point

>>> recorded_result("CCCCC1CN=C(SCC2=CSC3=NC(C)(C)CN23)N1 (centres unmarked) (as salt: hydrochloride) [Example 13, dihydrochloride]")
"95 to 104 °C"
>>> recorded_result("C1=C(CSC2=NCCCN2)N2CCCN=C2S1 (as salt: hydrochloride) [Example 29, dihydrochloride]")
"> 250 °C"
>>> recorded_result("CC1(C)CN2C(CSC3=NCC(C)(C)N3)=CSC2=N1 (as salt: hydrochloride) [Example 2, dihydrochloride]")
"> 250 °C"
>>> recorded_result("CCCCC1CN=C(SCC2=CSC3=NC(Cc4ccccc4)CN23)N1 (centres unmarked) (as salt: hydrochloride) [Example 51, dihydrochloride]")
"150 to 154 °C"
>>> recorded_result("CN1CCCN=C1SCC1=CSC2=NC(C)(C)CN12 (as salt: hydrochloride) [Example 57, dihydrochloride]")
"245 to 249 °C"
>>> recorded_result("C1=C(CSC2=NCCN2)N2C(=N[C@H]3CCCCC32)S1 (mixture of isomers) (as salt: hydrochloride) [Example 59, dihydrochloride]")
"115 to 120 °C"
>>> recorded_result("CC1(C)CN=C(SCC2=CSC3=N[C@H]4CCCC[C@@H]4N23)N1 (racemic) (as salt: hydrochloride) [Example 7, dihydrochloride]")
"248 to 252 °C"
>>> recorded_result("CC1(C)CN=C(SCC2=CSC3=NC(C)(C)CN23)NC1 (as salt: hydrochloride) [Example 28, dihydrochloride]")
"> 250 °C"
>>> recorded_result("CC1(C)CN2C(CSC3=NCC4CCCCC4N3)=CSC2=N1 (centres unmarked) (as salt: hydrochloride) [Example 40, dihydrochloride]")
"245 to 249 °C"
>>> recorded_result("CC1(C)CN=C(SCC2=CSC3=NCCCCN23)N1 (as salt: hydrochloride) [Example 15, dihydrochloride]")
"244 to 247 °C"
>>> recorded_result("CC1(C)CN=C(SCC2=CSC3=NCCN23)N1 (as salt: hydrochloride) [Example 21, dihydrochloride]")
"220 to 230 °C"
>>> recorded_result("CC1(C)CN2C(CSC3=N[C@H]4COC[C@H]4N3)=CSC2=N1 (as salt: hydrochloride) [Example 25, dihydrochloride]")
"> 250 °C"
>>> recorded_result("CC1(C)CN=C(SCC2=CSC3=NC4CCCCC4CN23)N1 (centres unmarked) (as salt: hydrochloride) [Example 43, dihydrochloride]")
"241 to 245 °C"
>>> recorded_result("CN1CCN=C1SCC1=CSC2=NC(C)(C)CN12 (as salt: hydrochloride) [Example 11, dihydrochloride]")
"128 to 132 °C"
>>> recorded_result("CC1(C)CN=C(SCC2=CSC3=NC(C)(C)C(C)(C)N23)N1 (as salt: hydrochloride) [Example 20, dihydrochloride]")
"140 to 160 °C"
>>> recorded_result("CC1(C)CN=C(SCC2=CSC3=N[C@H]4CCCC[C@H]4N23)N1 (racemic) (as salt: hydrochloride) [Example 10, dihydrochloride]")
"210 to 215 °C"
>>> recorded_result("CC1(C)CN2C(CSC3=NC(C)(C)C(C)(C)N3)=CSC2=N1 (as salt: hydrochloride) [Example 16, dihydrochloride]")
"185 to 205 °C"
